Exercise: for every item that follows, state its recorded pIC50.
# assay.target: class A β-lactamase Imi-1 (Enterobacter cloacae)
# Sequence (Q46991 entry or part of it): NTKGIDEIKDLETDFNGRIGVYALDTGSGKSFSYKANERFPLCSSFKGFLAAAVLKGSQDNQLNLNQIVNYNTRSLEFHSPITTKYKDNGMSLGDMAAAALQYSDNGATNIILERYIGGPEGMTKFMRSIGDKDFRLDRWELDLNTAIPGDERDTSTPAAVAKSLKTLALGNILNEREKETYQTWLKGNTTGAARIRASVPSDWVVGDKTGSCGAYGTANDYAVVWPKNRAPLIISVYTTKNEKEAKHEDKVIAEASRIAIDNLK
# experiment.notes: β-Lactamase inhibition, IC50 determination (nitrocefin, spectrophotometric)
# Format: biochemical
Structures can show the parent of a compound that is named as a salt.
Please keep in mind that pIC50 is minus log10 of the molar concentration; only the number is needed.

Given the compound COc1ccc2c(c1)sc1nc(/C=C3/C(=O)N4C(C(=O)O)=CS[C@H]34)cn12 and test system class A β-lactamase Imi-1 (Enterobacter cloacae), the measured pIC50 is 6.74

Reported class A β-lactamase Imi-1 (Enterobacter cloacae) pIC50 for item O=C(O)C1=CS[C@@H]2/C(=C\c3cn4c(cnc5ccccc54)n3)C(=O)N12 [Example 6, sodium salt] was 6.68

Note to self: pIC50 of O=C(O)C1=CS[C@@H]2/C(=C\c3cn4c(n3)sc3ccccc34)C(=O)N12 with class A β-lactamase Imi-1 (Enterobacter cloacae) was 6.80

Tested on class A β-lactamase Imi-1 (Enterobacter cloacae): O=C(O)C1=CS[C@@H]2/C(=C\c3cn4c(ccc5ccccc54)n3)C(=O)N12 . Observed pIC50: 7.05

* * *

# Test system: S. aureus GC2216
# experiment.notes: Antimicrobial susceptibility testing, microbroth dilution MIC of piperacillin + inhibitor
# Format: cell-based
# condition.context: piperacillin combined with constant 4 μg/ml inhibitor; Inc: 35° C. for 18 hours
property.label: Minimal Inhibitory Concentration S. aureus GC2216

# Minimal Inhibitory Concentration S. aureus GC2216 of O=C(O)C1=CS[C@@H]2/C(=C\c3cn4c5c(sc4n3)CCC5)C(=O)N12 = <0.06 µg/mL

Value of measured Minimal Inhibitory Concentration S. aureus GC2216 for the entry O=C([O-])C1=CS[C@@H]2/C(=C\c3cc4oc5c(n4n3)CCCC5)C(=O)N12.[Na+] : .05 µg/mL

Looking up O=C(O)C1=CS[C@@H]2/C(=C\c3cn4c5c(sc4n3)COCC5)C(=O)N12 , I see its Minimal Inhibitory Concentration S. aureus GC2216 listed as 0.05 µg/mL

Minimal Inhibitory Concentration S. aureus GC2216 reported for this compound O=C([O-])C1=CS[C@@H]2C(=Cc3cc4n(n3)Cc3ccccc3OC4)C(=O)N12.[Na+] : <0.06 µg/mL

* * *

# assay.target: class C enzyme AmpC (Enterobacter cloacae)
# Sequence (P05364 21-381): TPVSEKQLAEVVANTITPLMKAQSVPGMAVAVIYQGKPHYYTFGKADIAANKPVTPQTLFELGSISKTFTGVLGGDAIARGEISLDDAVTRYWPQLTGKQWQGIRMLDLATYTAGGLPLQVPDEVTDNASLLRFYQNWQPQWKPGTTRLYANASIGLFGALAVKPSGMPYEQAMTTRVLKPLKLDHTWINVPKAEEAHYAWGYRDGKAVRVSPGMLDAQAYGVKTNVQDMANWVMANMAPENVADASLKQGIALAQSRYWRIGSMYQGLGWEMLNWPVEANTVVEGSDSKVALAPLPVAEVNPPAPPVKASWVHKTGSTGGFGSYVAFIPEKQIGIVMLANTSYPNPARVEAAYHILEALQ
# experiment.notes: biochemical
# Design: species or system Enterobacter cloaca
# condition.context: enzyme 2.1 nM; 10 min preincubation at 25° C.; nitrocefin 50 μg/ml; 50 mM PO4, pH 7.0; read-out: IC50 (nM) Class C AmpC
# Protocol: IC50 Determination for the Penem Inhibitor β-Lactamase inhibitory activity of the penem inhibitors was determined spectrophotometrically as described by Bush et al., [Bush, K., Macalintal, C., Rasmussen, B. A., Lee, V. and Yang, Y. Antimicrobial Agents and Chemotherapy 1993, 37, 851]. […] Initial rates of hydrolysis were monitored for 5 minutes at 495 nm using a Molecular Devices Spectra Max 250 with kinetic protocol of SoftMax Program. […]
Please note: IC50 exactly at 4 nM is False. Only values below 4 nM get True.

Dear reviewer, please state whether O=C(O)C1=CS[C@@H]2/C(=C\c3cn4c5c(sc4n3)COCC5)C(=O)N12 has IC50 strictly beneath 4 nM.
True

Determine if O=C([O-])C1=CS[C@@H]2C(=Cc3cc4n(n3)Cc3ccccc3OC4)C(=O)N12.[Na+] [Example 11, sodium salt] shows IC50 strictly lower than 4 nM.
True

Answer whether the molecule O=C([O-])C1=CS[C@@H]2/C(=C\c3cc4oc5c(n4n3)CCCC5)C(=O)N12.[Na+] [Example 32, sodium salt] has IC50 strictly less than 4 nM
False

Check if IC50 falls below 4 nM for O=C(O)C1=CS[C@@H]2/C(=C\c3ccc4c(c3)sc3nccn34)C(=O)N12 .
False

Would you kindly verify if IC50 of Cc1ccc2c(c1)sc1nc(/C=C3/C(=O)N4C(C(=O)O)=CS[C@H]34)cn12 is strictly less than 4 nM?
True

Does the reported IC50 of O=C([O-])C1=CS[C@@H]2/C(=C\c3cc4c(s3)-c3cccnc3SC4)C(=O)N12.[Na+] [Example 21, (Sodium salt)] stay below 4 nM?
True

Hello, is IC50 of the following molecule strictly smaller than 4 nM? O=C(O)C1=CS[C@@H]2/C(=C\c3cn4c(n3)sc3cc(Cl)ccc34)C(=O)N12
True

Identify whether the molecule CCOC(=O)N1CCc2c(oc3cc(/C=C4/C(=O)N5C(C(=O)[O-])=CS[C@H]45)nn23)C1.[Na+] [Example 33, sodium salt] records IC50 below 4 nM.
False

Please check: IC50 for O=C(O)C1=CS[C@@H]2/C(=C\c3cn4c5c(sc4n3)CCCC5)C(=O)N12 , strictly under 4 nM or not?
True

Please indicate whether the reported IC50 of O=C(O)C1=CS[C@@H]2/C(=C\c3cn4c5c(sc4n3)CCC5)C(=O)N12 is strictly below 4 nM.
True
